molecular target: mPanx1 (Mus musculus); test: whole-cell patch clamp, CHO cells transfected with mPanx1, dose-response
Sequence (Q9JIP4 whole entry): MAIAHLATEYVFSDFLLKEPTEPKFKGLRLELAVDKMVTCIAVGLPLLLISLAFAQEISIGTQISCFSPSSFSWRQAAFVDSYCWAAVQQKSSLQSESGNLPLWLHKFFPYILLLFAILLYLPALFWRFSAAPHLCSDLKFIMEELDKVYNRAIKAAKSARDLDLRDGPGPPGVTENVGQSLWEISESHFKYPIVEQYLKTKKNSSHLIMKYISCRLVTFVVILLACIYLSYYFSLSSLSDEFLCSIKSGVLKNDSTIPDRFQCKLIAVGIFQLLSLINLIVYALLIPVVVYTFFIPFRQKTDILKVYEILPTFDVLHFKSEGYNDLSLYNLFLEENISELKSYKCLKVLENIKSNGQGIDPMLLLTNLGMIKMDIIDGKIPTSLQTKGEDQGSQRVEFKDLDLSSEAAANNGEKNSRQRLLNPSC
recordedMetric: IC50 (nM)
Reply with just the number (in nM).

# input Provide one value: measured IC50 of CCCN(CCC)S(=O)(=O)c1ccc2c(c1)c(=O)c(C(=O)O)cn2Cc1ccc(S(N)(=O)=O)cc1 [12f]
# output 2700

Provenance of the data: paper PMC12114274
